Where these numbers come from: patent US20230081426A1

- target: G12D-mutant human KRAS (amino acid residues 1-188) (Homo sapiens, UniProt P01116, G12D)
- Construct: G12D or G12C-mutant human KRAS (amino acid residues 1-188) with FLAG tag; made in house; host or cells: E. coli
- assay_info: KRAS Binding Disruption Assay (AlphaScreen; biotinylated KRpep-2d analogue or RAF1-RBD), G12D
- conditions: Table 4; geometric mean; comparison with compounds of WO 2017/172979; read-out: KRAS GMean IC50 (uM) MUTATION: G12D

compound	value_unit	IC50
CN(C)CCCOc1nc(N2CCN(C)CC2)c2cc(Cl)c(-c3cc(O)cc4ccccc34)c(F)c2n1 [Compound 149 in WO 2017/172979, reference compound]	µM	16.5
CN(C)CCOc1nc(N2C[C@H]3CC[C@@H](C2)N3)c2ccc(-c3cc(O)cc4ccccc34)cc2n1 [P-0023]	µM	0.29
CC1CN(c2nc(OCCCN3CCC(F)(F)C3)nc3c(F)c(-c4cc(O)cc5ccccc45)c(Cl)cc23)C(C)CN1 (stereo not drawn) [Compound 36 in WO 2017/172979, reference compound]	µM	3.06

* * *

- target: G12V-mutant human KRAS (amino acid residues 1-188) (Homo sapiens, UniProt P01116, G12V)
- Construct: G12V-mutant human KRAS (amino acid residues 1-188) with FLAG tag was purified from E. coli; made in house; host or cells: E. coli
- assay_info: KRAS Binding Competition Assay (AlphaScreen; biotinylated KRpep-2d analogue), G12V
- conditions: geometric mean, read-out: KRAS GMean IC50 (uM) MUTATION: G12V
measurement_label: IC50

> print(dat)
                                   compound                                    target  experimental.value
1  CN1CCC[C@H]1COc1nc(N2[C@@H]3CC[C@H]2CN(C(=O)NC2CCN(C4CCCCC4)C2)C3)c2ccc(-c3cc(O)cc4ccccc34)cc2n1 (stereo partly shown)  G12V-mutant human KRAS (amino acid residues 1-188) (Homo sapiens, UniProt P01116, G12V)        10 to 100 µM
2  Cc1c(N)cccc1-c1ccc2c(N3[C@@H]4CC[C@H]3CNC4)nc(OC[C@@H]3CCCN3C)nc2c1  G12V-mutant human KRAS (amino acid residues 1-188) (Homo sapiens, UniProt P01116, G12V)        10 to 100 µM
3  O=C(NC1CCNCC1)N1[C@@H]2CC[C@H]1CN(c1nc(OCC34CCCN3CCC4)nc3cc(-c4cc(O)cc5ccccc45)ccc13)C2  G12V-mutant human KRAS (amino acid residues 1-188) (Homo sapiens, UniProt P01116, G12V)     0.0001 to 10 µM
4  CN1CCC[C@H]1COc1nc(N2C[C@H]3CC[C@@H](C2)N3C(=O)CCn2cccn2)c2ccc(-c3cc(O)cc4ccccc34)cc2n1  G12V-mutant human KRAS (amino acid residues 1-188) (Homo sapiens, UniProt P01116, G12V)     0.0001 to 10 µM
5  Cc1c(-c2cc(O)cc3ccccc23)ccc2c(N3C[C@H]4CC[C@@H](C3)N4)nc(OCC34CCCN3CCC4)nc12  G12V-mutant human KRAS (amino acid residues 1-188) (Homo sapiens, UniProt P01116, G12V)     0.0001 to 10 µM
6  O=C([C@H]1CCNC1)N1[C@@H]2CC[C@H]1CN(c1nc(OCC34CCCN3CCC4)nc3cc(-c4cc(O)cc5ccccc45)ccc13)C2  G12V-mutant human KRAS (amino acid residues 1-188) (Homo sapiens, UniProt P01116, G12V)     0.0001 to 10 µM
7  CN1CCC[C@H]1COc1nc(N2[C@@H]3CC[C@H]2CN(CCO)C3)c2ccc(-c3cc(O)cc4ccccc34)cc2n1  G12V-mutant human KRAS (amino acid residues 1-188) (Homo sapiens, UniProt P01116, G12V)        10 to 100 µM
